Tested on: CP247
Experiment: qHTS profiling for inhibitors of Plasmodium falciparum proliferation (AID 504749); note: nearly all actives have a fitted effect of over 60% in size
Settings: P. falciparum in erythrocytes, SYBR Green DNA, 72 h; series mostly up to 28.7 µM
Protocol: NIH National Institute of Allergy and Infectious Diseases [NIAID] NIH Chemical Genomics Center [NCGC] […] Because mature erythrocytes lack DNA, only Plasmodium-derived DNA is detected. NCGC Assay Protocol Summary: The SYBR Green viability assay was adapted from a method described previously (Plouffe et al., 2008). […] The following morning, fluorescence intensity at 485(14) nm excitation and 535(25) nm emission wavelengths was measured on an EnVision (Perkin Elmer) plate reader. […]
Inconclusive results are not listed. Active and inactive are the calls of the source. Calls come from the whole dose curve; as a rule, active = well fitted inhibition curve with a large enough effect; inconclusive = small, poorly fitted or top-dose-only effect; inactive = flat fitted curve, though single readings scatter.
Use one of these outcomes when replying: active, inactive

Reference set, count: 5
{"columns": ["Compound", "Answer Label"],
 "data": [
  ["C=CC[C@]1(O)CCC2C3CCC4=CCCCC4C3CCC21C (stereo partly drawn)", "inactive"],
  ["C=CC[N+]1(C)CCC23c4c5ccc(O)c4O[C@H]2C(=O)CC[C@@]3(O)C1C5 (stereo partly drawn)", "inactive"],
  ["CC1(C)S[C@@H]2[C@H](N)C(=O)N2C1C(=O)O (stereo partly drawn)", "inactive"],
  ["CC(=O)Oc1ccc2c3c1OC1[C@@H](OC(C)=O)C=C[C@H]4[C@H](C2)N(C)CC[C@]314 (stereo partly drawn)", "inactive"],
  ["OC[C@@H](O)[C@H]1O[C@@H]2OC(C(Cl)(Cl)Cl)O[C@H]2[C@H]1O (stereo partly drawn)", "inactive"]
]}

Record request — test call for CN1C2CCC1C(C(=O)O)C(OC(=O)c1ccccc1)C2 (stereo not drawn)
inactive

Tell me the assay call for COC(C(=O)C(O)C(C)O)C1Cc2cc3cc(OC4CC(OC5CC(O)C(OC)C(C)O5)C(OC(C)=O)C(C)O4)c(C)c(O)c3c(O)c2C(=O)C1OC1CC(OC2CC(OC3CC(C)(O)C(OC(C)=O)C(C)O3)C(O)C(C)O2)C(O)C(C)O1 (stereo not drawn) please.
active

Hi, sorry to bother you, what did the test record for "Nc1nc(O)c(-c2ccccc2)o1" ?
inactive

---

In this section, each of the compounds is paired with its reported max response.
molecular target: Peroxisome proliferator-activated receptor alpha (Homo sapiens) (UniProt Q07869); assay: qHTS assay for small molecule agonists of the peroxisome proliferator-activated receptor alpha (PPARalpha) signaling pathway (AID 651778); conditions: PathHunter PPARalpha complementation, chemiluminescence, 6 h; hits give high values; note: % of control where 0% means no effect
Sequence (Q07869 whole entry, looked up): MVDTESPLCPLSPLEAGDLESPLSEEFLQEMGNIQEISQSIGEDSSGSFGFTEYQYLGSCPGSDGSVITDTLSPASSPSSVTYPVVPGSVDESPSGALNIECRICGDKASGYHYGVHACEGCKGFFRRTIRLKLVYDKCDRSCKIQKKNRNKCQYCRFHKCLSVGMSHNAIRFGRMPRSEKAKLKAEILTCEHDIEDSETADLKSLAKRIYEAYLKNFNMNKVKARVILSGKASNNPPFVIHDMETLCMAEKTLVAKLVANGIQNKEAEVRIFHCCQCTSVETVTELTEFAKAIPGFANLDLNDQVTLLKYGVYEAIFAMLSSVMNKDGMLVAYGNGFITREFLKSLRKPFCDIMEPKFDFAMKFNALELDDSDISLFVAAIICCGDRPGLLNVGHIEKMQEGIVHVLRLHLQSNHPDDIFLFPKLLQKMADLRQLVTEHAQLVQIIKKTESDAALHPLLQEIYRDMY
# unit: % | format: bare number

Study these solved cases before continuing.
{"columns": ["Compound", "Assay Value"],
 "data": [
  ["COP(=O)(OC)Oc1ccc([N+](=O)[O-])cc1", -5.35],
  ["COc1ccc(C(O)(c2cncnc2)C2CC2)cc1 (stereo unspecified)", -2.81],
  ["O=[N+]([O-])c1ccc(Cl)c([N+](=O)[O-])c1", -3.79]
]}

Endpoint output: max response of "CCOc1ccc(C(C)(C)COCc2cccc(Oc3ccccc3)c2)cc1" . Value?
-1.64

Dear colleague, I am looking for the recorded max response of the following compound: "Nc1cnn(-c2ccccc2)c(=O)c1Cl"
-1.54

Can you look up the measured max response of CCOC1Oc2ccc(OS(C)(=O)=O)cc2C1(C)C (stereo unspecified) for me?
-0.11
